# target desc: human recombinant mGluR5 (Homo sapiens)
# Construct: cultured with tetracycline, hygromycin and geneticin; tetracycline withdrawn 3-7 days before the assay
# test details: positive modulation of mGluR5, calcium based FLIPR assay in HEK 293 cells
# experimental conditions: HEK 293 cell line expressing human recombinant mGluR5; peak height of Ca release fluorescence signal after glutamate at approximately 5% basal stimulation; nonlinear regression
attribute measured: EC50 (nM)

(I) Cc1ccc(-c2cc(-c3ccccc3)n(CC(=O)N3CCN(c4ncccn4)CC3)n2)cc1F [Example 7.01.188]
(II) COCc1cc(-c2ccc(F)c(C)c2)nn1CC(=O)N1CCN(c2cc(OC)ccn2)CC1 [Example 7.02.17]
Query string: Endpoint returns whichever of I and II has the numerically higher EC50. Lab note: record the label of whichever item you select.
Result string: II
(II: 182 nM, I: 27 nM)

(P) Cc1cc(-c2cc(C3CC3)n(CC(=O)N3CCN(c4ncccn4)CC3)n2)ccc1F [Example 7.01.42]
(Q) Cc1cc(-c2cc(-c3ccccc3)n(CC(=O)N3CCN(c4cccnn4)CC3)n2)ccc1F [Example 7.01.02]
(R) COc1cc(N2CCN(C(=O)Cn3nc(-c4ccc(F)c(C)n4)cc3-c3ccccc3)CC2)ncn1 [Example 7.01.156]
(S) Cc1cc(-c2cc(C(C)C)n(CC(=O)N3CCN(c4cccnn4)CC3)n2)ccc1F [Example 7.01.29]
Query string: Ascending by EC50, please: list the compounds accordingly. When ranking, write the labels in the order the request describes.
Result string: Q, R, P, S

* * *

# target desc: human recombinant mGluR5 (Homo sapiens, UniProt P41594)
# Construct: cultured with tetracycline, hygromycin and geneticin; tetracycline withdrawn 3-7 days before the assay
# Sequence (P41594 21-1212): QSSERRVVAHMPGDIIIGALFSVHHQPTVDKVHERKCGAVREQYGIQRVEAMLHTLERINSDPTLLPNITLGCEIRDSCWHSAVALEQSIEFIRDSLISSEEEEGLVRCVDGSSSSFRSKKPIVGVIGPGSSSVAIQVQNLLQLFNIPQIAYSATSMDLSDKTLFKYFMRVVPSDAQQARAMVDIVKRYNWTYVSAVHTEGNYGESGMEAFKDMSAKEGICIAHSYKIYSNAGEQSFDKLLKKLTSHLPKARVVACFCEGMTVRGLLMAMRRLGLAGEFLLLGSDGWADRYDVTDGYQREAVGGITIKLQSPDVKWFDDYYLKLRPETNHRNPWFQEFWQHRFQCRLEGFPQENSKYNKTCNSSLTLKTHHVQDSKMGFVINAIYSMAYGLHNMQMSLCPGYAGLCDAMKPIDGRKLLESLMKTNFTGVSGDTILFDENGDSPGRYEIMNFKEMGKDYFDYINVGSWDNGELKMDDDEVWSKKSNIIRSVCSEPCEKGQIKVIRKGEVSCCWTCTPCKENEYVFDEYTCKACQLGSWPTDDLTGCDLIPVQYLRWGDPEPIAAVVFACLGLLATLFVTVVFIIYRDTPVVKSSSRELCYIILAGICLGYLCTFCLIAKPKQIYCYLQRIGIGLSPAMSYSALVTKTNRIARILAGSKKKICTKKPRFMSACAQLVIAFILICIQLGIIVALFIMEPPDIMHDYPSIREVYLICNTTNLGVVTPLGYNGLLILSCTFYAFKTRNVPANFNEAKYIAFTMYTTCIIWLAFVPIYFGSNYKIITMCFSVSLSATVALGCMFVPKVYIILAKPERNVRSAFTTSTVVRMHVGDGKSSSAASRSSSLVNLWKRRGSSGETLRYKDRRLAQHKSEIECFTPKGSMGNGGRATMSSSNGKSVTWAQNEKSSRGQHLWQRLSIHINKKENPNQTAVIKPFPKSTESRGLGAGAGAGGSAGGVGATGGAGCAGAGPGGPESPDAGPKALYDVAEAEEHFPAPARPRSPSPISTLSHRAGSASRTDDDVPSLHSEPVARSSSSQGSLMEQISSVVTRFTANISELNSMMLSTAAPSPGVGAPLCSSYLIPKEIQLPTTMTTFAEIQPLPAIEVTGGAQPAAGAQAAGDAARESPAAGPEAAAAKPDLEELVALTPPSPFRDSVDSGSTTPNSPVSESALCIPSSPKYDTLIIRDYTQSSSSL
# test details: positive modulation of mGluR5, calcium based FLIPR assay in HEK 293 cells
# experimental conditions: HEK 293 cell line expressing human recombinant mGluR5; peak height of Ca release fluorescence signal after glutamate at approximately 5% basal stimulation; nonlinear regression
attribute measured: EC50 (µM)

1. COc1cccc(N2CCN(C(=O)Cn3nc(-c4ccc(F)c(C)c4)cc3-c3ccccc3)CC2)c1 [Example 7.01.144]	0.057
2. Cc1cc(-c2cc(C3CCCCC3)n(CC(=O)N3CCN(c4ncccn4)CC3)n2)ccc1F [Example 7.01.34]	0.06
3. CCc1cc(-c2ccc(F)c(C)c2)nn1CC(=O)N1CCN(c2ccccn2)CC1 [Example 7.01.69]	0.079

* * *

# target desc: human recombinant mGluR5 (Homo sapiens, UniProt P41594)
# Construct: cultured with tetracycline, hygromycin and geneticin; tetracycline withdrawn 3-7 days before the assay
# test details: positive modulation of mGluR5, calcium based FLIPR assay in HEK 293 cells
# experimental conditions: HEK 293 cell line expressing human recombinant mGluR5; peak height of Ca release fluorescence signal after glutamate at approximately 5% basal stimulation; nonlinear regression
attribute measured: EC50 (nM)

1. Cc1ccc(-c2cc(-c3ccccc3)n(CC(=O)N3CCN(c4ncccn4)CC3)n2)cc1C [Example 7.01.98]	13
2. Cc1cc(-c2cc(CC(C)C)n(CC(=O)N3CCN(c4ncccn4)CC3)n2)ccc1F [Example 7.01.118]	18

(P) Cc1ccnc(N2CCN(C(=O)Cn3nc(-c4ccc(F)c(C)c4)cc3C3CCCCC3)CC2)c1 [Example 7.01.33]
(Q) CCCc1cc(-c2ccc(F)c(C)c2)nn1CC(=O)N1CCN(c2ncccn2)CC1 [Example 7.01.81]
Query string: Sorting ascending by EC50, which comes first: P or Q ? Lab note: record the label of whichever item you select.
Result string: Q
(Q: 13 nM, P: 161 nM)

(I) CCc1cc(-c2cccc(C)c2)nn1CC(=O)N1CCN(c2ccccn2)CC1 [Example 7.01.95]
(II) O=C(Cn1nc(-c2ccc(OC(F)F)cn2)cc1-c1ccccc1)N1CCN(c2ccccn2)CC1 [Example 7.01.179]
Query string: Endpoint returns whichever of I and II has the numerically higher EC50. Lab note: record the label of whichever item you select.
Result string: I
(I: 237 nM, II: 46 nM)
